Attribution: the RNAGym collection of RNA variant scans (doi:10.1101/gr.219683.116)

B1: mRNA-splicing (parent)
chain: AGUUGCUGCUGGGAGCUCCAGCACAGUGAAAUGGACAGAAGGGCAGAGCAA

Variants of: B1
Test: exon inclusion enrichment index; higher = more inclusion; WT1 exon 5 minigene, HEK293
Assign condition met whenever exon inclusion enrichment index does not fall below 0.2; assign condition not met whenever it does.

A selection of reference data follows.
{"mutant designation": "C6A U7C C9A U10C G12C G13C", "cat": "condition met"}
{"mutant designation": "G5A C6G U7G C9A G26C U27G", "cat": "condition not met"}
{"mutant designation": "C6A U7C C9A U10C G41C G42C", "cat": "condition met"}

Next:
Query block: Reported exon inclusion enrichment index at or above 0.2? C6A U7C C9A U10C G41A G42U
Result block: condition met
